# Condition Parameters: buffer; pH 7.4; 200.0 µM
Measured Endpoint: solubility kinetic

| Smiles Record | Recorded Result |
| --- | --- |
| CCN(CC(=O)Nc1ccc(C)c(F)c1)CC(=O)NC(C)C | > 46.4 µg/mL |
| COc1ccc(CCNC(=O)CCc2ccccc2)cc1OC | > 47 µg/mL |
| CCOC(=O)CSC1=NN2CCS(=O)(=O)N=C2S1 | > 46.4 µg/mL |
| COc1ccc2c(c1)c(C(C)=O)c(C)n2C | > 32.6 µg/mL |

###

# Condition Parameters: buffer; pH 7.4; 200.0 µM
Below, each entry is listed with its recorded log10(solubility kinetic).
Measured Endpoint: log10(solubility kinetic) (log10 of the value in µg/mL)

| Molecule | log10(solubility kinetic) |
| --- | --- |
| CCC(C(=O)Nc1cccnc1)c1ccccc1 (stereo unspecified) | 1.54 |
| Cc1ccc(Nc2nc(Cl)nc(NC(C)(C)C)n2)cc1 | 0.58 |
| Nc1nc(SCC(=O)NC2CCCC2)[nH]c(=O)c1NC(=O)c1cccs1 | 0.64 |
| CCOC(=O)CC(NC(=O)c1ccc(C)cc1)c1ccc(OC)cc1 (stereo unspecified) | 0.93 |
| Nc1cc(N2CCCCCC2)c2nonc2c1[N+](=O)[O-] | -0.05 |
| O=C(NCc1ccccc1)c1ccc(Cl)c(S(=O)(=O)N2CCCC2)c1 | 1.53 |
| CC(C)(C)c1ccc(/C=C/C(=O)NCCCn2ccnc2)cc1 | 1.66 |
| Cc1ccc2c(=O)c(CN3CCCCCC3)c(C)[nH]c2c1C | 1.61 |
| CCC(CC)C(=O)c1c[nH]c(C(=O)NCc2ccncc2)c1 | 1.65 |
| O=C(CN1CCCC1)Nc1c(C(=O)C2CC2)oc2ccccc12 | 1.50 |
| CC1CCN(c2ccccc2NC(=O)c2ccc([N+](=O)[O-])o2)CC1 | -0.30 |
| COc1ccc(-c2cc3ccccc3nc2N)cc1OC | 0.48 |
| O=C(CN1CCCCCC1)Nc1ccccc1Cl | 1.40 |
| CCCCNC(=O)C1(NC(=O)Nc2ccccc2)CCCCC1 | 0.74 |

###

As shown below, each of these compounds has a reported solubility kinetic value.
# Condition Parameters: buffer; pH 7.4; 200.0 µM

| Compound | solubility kinetic |
| --- | --- |
| CC1CCCN(S(=O)(=O)c2cnc[nH]2)C1 (configuration not stated) | > 34.4 µg/mL |
| S=C(Nc1ccccc1)N1CCCCCCC1 | > 37.3 µg/mL |
| Cc1ccc(S(=O)(=O)N2CCC[C@H]2C(=O)Nc2ccc(F)cc2C)cc1 | > 56.5 µg/mL |
| CCOc1ccc(C(=O)OCC(=O)NCC2CCCO2)cc1 (configuration not stated) | > 46.1 µg/mL |
| COc1ccc(-c2nc3ccccc3c(=O)n2O)cc1 | 37.9 µg/mL |
| O=C(NCc1ccccc1F)C12CC3CC(CC(C3)C1)C2 | 1 µg/mL |
| CCCCn1c(=O)c(C(=O)NCc2ccco2)c(O)c2ccccc21 | < 0.4 µg/mL |
| N#CCSc1nc2sccc2c(=O)n1-c1ccccc1 | 37 µg/mL |
| CCOC(=O)C1CCN(C(C)C(=O)c2c[nH]c3ccccc23)CC1 (configuration not stated) | > 49.3 µg/mL |
| Cc1ccc(Cl)cc1NC(=S)NCCCSC1CCCCC1 | 2.5 µg/mL |
| COc1ccccc1OCCCCn1c(C(C)O)nc2ccccc21 (configuration not stated) | 49.9 µg/mL |
| COc1ccc(CC(=O)NC2CCCCCC2)c(OC)c1 | 37.6 µg/mL |
| COc1cc(OC)c(NC(=O)N2CCOCC2)cc1Cl | > 45.1 µg/mL |
| Cc1ccc(-c2csc3ncnc(SCC(=O)O)c23)cc1 | > 47.5 µg/mL |
| Cc1cccc(C(=O)NCCNC(=O)c2cnccn2)c1 | 38.5 µg/mL |
| COc1ccccc1NC(=O)N1C[C@@H]2C[C@@H](C1)c1cccc(=O)n1C2 | > 50.9 µg/mL |
| N#Cc1ccc(NC(=O)c2cc(=O)c3ccccc3o2)cc1 | 0.8 µg/mL |
| COc1ccccc1/C=C(\C)C(=O)c1c(C)cc(C)[nH]c1=O | > 44.6 µg/mL |
| COc1cc([N+](=O)[O-])ccc1NC(=O)CN1CCc2cc(OC)c(OC)cc2C1 | 34.1 µg/mL |
| O=C(O)c1cccc(-n2c(O)c(C=C3N=c4ccccc4=N3)sc2=S)c1 | > 57.2 µg/mL |
| COc1cccc(N2CCN(C(=O)CSc3ccc(F)cc3)CC2)c1 | 50.2 µg/mL |
| COC(=O)Cc1cc(=O)[nH]c(/N=C(\N)Nc2cccc(C)c2)n1 | 10.7 µg/mL |
| Cc1cccc(NC(=O)CCN2CC(C)CC(C)C2)c1.Cl (configuration not stated) | > 46.6 µg/mL |
| Nc1cc2c(cc1Cl)N(Cc1ccccc1)C(=O)CO2 | > 43.3 µg/mL |
| Cl.NCCc1cnc[nH]1 | > 27.6 µg/mL |
| Fc1ccc(CNC(=S)NCc2ccc(F)cc2)cc1 | 6.4 µg/mL |
| Cc1ccc(NC(=O)COC(=O)C2(CC(=O)NC(C)(C)C)CCCC2)cc1C | 2.5 µg/mL |

###

# Condition Parameters: buffer; pH 7.4; 200.0 µM
Please note: t applies when solubility kinetic is 10 µg/mL or greater, and f applies otherwise.

| Compound | Class Name |
| --- | --- |
| O=C(c1cc(-c2ccc(Cl)cc2)on1)N1CCCC1 | f |
| CCOCCCn1c(SCC(=O)N2CCOCC2)nc2ccccc2c1=O | t |
| FC(c1nc2ccccc2[nH]1)C(F)(F)F (stereo not drawn) | t |
| O=C1CCCC(=O)C1C1c2ccccc2CCN1C(=O)CCl (stereo not drawn) | t |
| CCN(CC)S(=O)(=O)c1ccc(-c2csc(C)n2)s1 | t |
| COCCNc1nc(-c2cc(C)c(C)cc2C)cs1.Cl | t |
| CCOC(=O)N1CCN(Cc2ccc(O)c3ncccc23)CC1 | t |
| CCOC(=O)C1=C(C)N(C)C(=O)NC1c1ccc2c(c1)OCO2 (stereo not drawn) | t |
| CC(OC(=O)c1cn(C)c2ccccc12)C(=O)N1CCCC1 (stereo not drawn) | t |
| COc1ccc(CNC(=O)Cc2cccs2)cc1OC | t |
| COc1cc(OC)c(C(=O)N2CCCC2)cc1OC | t |
| CC(CN1C(C)CCCC1C)OC(=O)c1ccccc1F.Cl (stereo not drawn) | t |
| CCOC(=O)c1cc([N+](=O)[O-])sc1NC(=O)CC | f |

###

Each entry below carries its recorded solubility kinetic.
# Condition Parameters: buffer; pH 7.4; 200.0 µM
Measured Endpoint: solubility kinetic

| Molecule | Measured Endpoint | Recorded Result |
| --- | --- | --- |
| O=C(Nc1ccccn1)c1ccc2c(c1)OCO2 | solubility kinetic | > 36.3 µg/mL |
| O=[N+]([O-])c1cccnc1Oc1ccccc1F | solubility kinetic | > 35.1 µg/mL |
| CCOC(=O)Cn1cc(C#N)c2ccccc21 | solubility kinetic | > 34.2 µg/mL |
| N#Cc1ccc(N2CCCNCC2)nc1 | solubility kinetic | > 30.3 µg/mL |
| O=S(=O)(Nc1ccncc1Cl)c1cc(Cl)ccc1Cl | solubility kinetic | > 50.6 µg/mL |
| O=C(O)c1ccccc1C(=O)Nc1ccccc1NC(=O)c1ccccc1C(=O)O | solubility kinetic | > 60.7 µg/mL |
| COC(=O)c1nn(-c2ccc(C)cc2)ccc1=O | solubility kinetic | > 36.6 µg/mL |
| COc1ccccc1CNC(=O)c1cc2ccccc2oc1=O | solubility kinetic | < 0.7 µg/mL |
| Cc1cc([N+](=O)[O-])nn1CC(=O)NCCCN1CCOCC1 | solubility kinetic | > 46.7 µg/mL |
| O=S(=O)(c1ccc2c(c1)CCC2)N1CCNCC1 | solubility kinetic | > 40 µg/mL |
| COC(=O)CCCN=C1SCCN1Cc1ccccc1 | solubility kinetic | > 43.9 µg/mL |
| O=C(COc1ccccc1Cl)Nc1cccnc1 | solubility kinetic | 33.7 µg/mL |
| O=C(Nc1ccc(NC(=O)C2CC2)cc1)c1cccs1 | solubility kinetic | 3.3 µg/mL |
| O=C(NCCCNC(=O)c1ccco1)c1ccc(Cl)cc1 | solubility kinetic | > 46 µg/mL |
| O=C(Oc1ccc(Br)cc1)c1cccnc1 | solubility kinetic | 34.3 µg/mL |
| CCC(=O)Nc1ccc(C2C(=O)c3ccccc3C2=O)cc1 | solubility kinetic | > 44 µg/mL |
| Cc1ccc(S(=O)(=O)Nc2ccc3[nH]ccc3c2)cc1 | solubility kinetic | > 43 µg/mL |
| COC(=O)C(C(=O)OC)c1ncc(C(F)(F)F)cc1Cl | solubility kinetic | 41.1 µg/mL |
| COc1cccc(OC)c1OC(=O)C1CC(=O)N(c2ccc3c(c2)OCCO3)C1 (stereo not drawn) | solubility kinetic | > 59.9 µg/mL |
| Cc1ccc(C)c(-c2csc(-c3cccnc3)n2)c1 | solubility kinetic | 9.9 µg/mL |
| CC(CCc1ccccc1)NCC#N.Cl (stereo not drawn) | solubility kinetic | 31.1 µg/mL |
| O=[N+]([O-])C1=CC=C2C(=NC3(CCCCC3)N2O)C1=NC1CCCCC1 | solubility kinetic | 24.6 µg/mL |
| COc1ccc(C(=O)CCN2CCC(C)CC2)cc1.Cl | solubility kinetic | > 44.7 µg/mL |
| CC1CCCC(C)N1C(=S)SCC(=O)O (stereo not drawn) | solubility kinetic | > 37.1 µg/mL |
| Cc1ccc(N(C(=O)Nc2ccccc2)C2=NCCC2)cc1 | solubility kinetic | 4.5 µg/mL |
| COc1ccc(CCC(=O)NCCOc2ccccc2Cl)cc1 | solubility kinetic | > 50.1 µg/mL |
| O=C(COC(=O)CNC(=O)C1CCCCC1)Nc1ccccc1OC(F)F | solubility kinetic | > 57.7 µg/mL |
| S=C1SCN(Cc2cccnc2)CN1Cc1ccccc1 | solubility kinetic | 38.9 µg/mL |
